System: MDA-MB-468 breast
Test: NCI tumour cell line growth inhibition, 48 h
TGI of 5 µM or higher: Fulfilled. Under 5 µM: Not fulfilled.

Prompt line: Does the reported TGI for `COc1ccccc1C(=O)c1cnc(NC2CCN(S(C)(=O)=O)CC2)nc1N` fall at or above the 5 µM mark?
Response line: Fulfilled

Prompt line: Similarly, `COc1cccc(-c2nn(-c3ccccc3)cc2-c2ccnc(NCCNC(=O)Nc3ccc(Cl)c(Cl)c3)c2)c1` ?
Response line: Not fulfilled

Prompt line: Similarly, `COC(=O)c1cc(Nc2ccc(O)c3c2C(=O)c2c([N+](=O)[O-])ccc(O)c2C3=O)cc(C(=O)OC)c1` ?
Response line: Fulfilled

Prompt line: Similarly, `Cc1nnc([S-])s1.[Au+].c1ccc([PH+](c2ccccc2)c2ccccc2)cc1` ?
Response line: Not fulfilled

Prompt line: Similarly, `COc1ccc(/C=C/C(=O)c2ccc(N3CCN(C)CC3)cc2)c(C(F)(F)F)c1` ?
Response line: Fulfilled

Prompt line: Similarly, `COc1cc[nH]c1/C=C1\C(=O)Nc2ccc(F)c(C#CC3(O)CCOCC3)c21` ?
Response line: Not fulfilled

Prompt line: Similarly, `Cc1ccc(NCSc2ccc(Cl)cc2)cc1` ?
Response line: Fulfilled
